Data provenance is patent US20260070913A1.

Study Target: GCK (Homo sapiens, UniProt Q12851)
Sequence (Q12851 1-820): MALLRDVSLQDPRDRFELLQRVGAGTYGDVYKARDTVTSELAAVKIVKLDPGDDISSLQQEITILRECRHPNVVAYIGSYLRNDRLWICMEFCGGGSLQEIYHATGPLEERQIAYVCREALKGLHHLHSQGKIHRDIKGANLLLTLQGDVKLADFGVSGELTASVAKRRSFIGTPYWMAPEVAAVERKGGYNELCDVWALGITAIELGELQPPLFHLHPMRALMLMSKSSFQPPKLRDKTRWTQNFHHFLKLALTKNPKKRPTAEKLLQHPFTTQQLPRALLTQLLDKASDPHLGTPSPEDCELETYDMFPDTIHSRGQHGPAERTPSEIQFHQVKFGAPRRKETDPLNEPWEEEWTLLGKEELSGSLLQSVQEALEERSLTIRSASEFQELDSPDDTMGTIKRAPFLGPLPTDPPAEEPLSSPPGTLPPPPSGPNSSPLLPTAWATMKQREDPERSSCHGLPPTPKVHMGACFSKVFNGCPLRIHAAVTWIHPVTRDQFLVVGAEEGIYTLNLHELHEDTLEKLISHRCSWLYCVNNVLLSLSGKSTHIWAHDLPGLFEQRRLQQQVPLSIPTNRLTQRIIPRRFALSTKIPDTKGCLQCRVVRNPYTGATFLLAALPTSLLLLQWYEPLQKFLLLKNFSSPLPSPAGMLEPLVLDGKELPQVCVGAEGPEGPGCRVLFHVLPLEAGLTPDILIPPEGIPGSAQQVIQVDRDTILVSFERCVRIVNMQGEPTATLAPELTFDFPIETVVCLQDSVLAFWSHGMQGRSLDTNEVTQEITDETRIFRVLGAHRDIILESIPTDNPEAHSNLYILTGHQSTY
pIC50: −log10 of the molar value.
Quantity Kind: pIC50

Cc1ccc(Nc2ncc3c(n2)N(C)C(=O)N(c2cc(-c4ncc(-c5cccc(C(F)(F)F)c5)[nH]4)ccc2C)C3)cn1 : < 5.00
CCN1CCC(n2cc(Nc3ncc4c(n3)N(C)C(=O)N(c3cc(-c5ncc(-c6ccccc6OC(F)(F)F)[nH]5)ccc3C)C4)cn2)CC1 : 6.00 to 7.00
CC(=O)N1CCN(c2ccc(Nc3ncc4c(n3)N(C)C(=O)N(c3cc(-c5ncc(-c6ccccc6OC(F)(F)F)[nH]5)ccc3C)C4)cn2)CC1 : 6.00 to 7.00
CCN1CCC(n2cc(Nc3ncc4c(n3)N(C)C(=O)N(c3cc(-c5ncc(-c6ccccc6OC)[nH]5)ccc3C)C4)cn2)CC1 : 6.00 to 7.00

### Prompt Answer with reported pIC50 of Cc1ccc(Nc2ncc3c(n2)N(C)C(=O)N(c2cc(-c4ncc(-c5ccccc5OC(F)(F)F)[nH]4)ccc2C)C3)cn1
### Response < 5.00

### Prompt Provide one value: measured pIC50 of COc1ccccc1-c1cnc(-c2ccc(C)c(N3Cc4cnc(Nc5cnn(C6CCN(C(C)=O)CC6)c5)nc4N(C)C3=O)c2)[nH]1
### Response 6.00 to 7.00

### Prompt Kindly indicate its recorded pIC50. Item: CCN1CCC(c2ccc(Nc3ncc4c(n3)N(C)C(=O)N(c3cc(-c5ncc(-c6ccccc6OC)[nH]5)ccc3C)C4)cn2)CC1
### Response 6.00 to 7.00

### Prompt Provide one value: measured pIC50 of Cc1ccc(Nc2ncc3c(n2)N(C)C(=O)N(c2cc(-c4ncc(-c5cccc(F)c5F)[nH]4)ccc2C)C3)cn1
### Response < 5.00

---

Dear all, this message contains IC50 results, target or system ACK1 (Homo sapiens, UniProt Q07912).

Cc1ccc(-c2ncc(-c3cccc(F)c3F)[nH]2)cc1N1Cc2cnc(NC3CC3)nc2N(C)C1=O [Compound No. 11] : 1000 to 10000 nM

### Prompt For ACK1 (Homo sapiens, UniProt Q07912), give the measured IC50 of the entry Cc1ccc(Nc2ncc3c(n2)N(C)C(=O)N(c2cc(-c4ncc(-c5cccc(F)c5F)[nH]4)ccc2C)C3)cn1 [Compound No. 12]
### Response 100 to 1000 nM

### Prompt Give IC50 for this entry on ACK1 (Homo sapiens, UniProt Q07912): CCN1CCC(c2ccc(Nc3ncc4c(n3)N(C)C(=O)N(c3cc(-c5ncc(-c6ccccc6OC)[nH]5)ccc3C)C4)cn2)CC1 [Compound No. 5]
Sequence (Q07912 whole entry): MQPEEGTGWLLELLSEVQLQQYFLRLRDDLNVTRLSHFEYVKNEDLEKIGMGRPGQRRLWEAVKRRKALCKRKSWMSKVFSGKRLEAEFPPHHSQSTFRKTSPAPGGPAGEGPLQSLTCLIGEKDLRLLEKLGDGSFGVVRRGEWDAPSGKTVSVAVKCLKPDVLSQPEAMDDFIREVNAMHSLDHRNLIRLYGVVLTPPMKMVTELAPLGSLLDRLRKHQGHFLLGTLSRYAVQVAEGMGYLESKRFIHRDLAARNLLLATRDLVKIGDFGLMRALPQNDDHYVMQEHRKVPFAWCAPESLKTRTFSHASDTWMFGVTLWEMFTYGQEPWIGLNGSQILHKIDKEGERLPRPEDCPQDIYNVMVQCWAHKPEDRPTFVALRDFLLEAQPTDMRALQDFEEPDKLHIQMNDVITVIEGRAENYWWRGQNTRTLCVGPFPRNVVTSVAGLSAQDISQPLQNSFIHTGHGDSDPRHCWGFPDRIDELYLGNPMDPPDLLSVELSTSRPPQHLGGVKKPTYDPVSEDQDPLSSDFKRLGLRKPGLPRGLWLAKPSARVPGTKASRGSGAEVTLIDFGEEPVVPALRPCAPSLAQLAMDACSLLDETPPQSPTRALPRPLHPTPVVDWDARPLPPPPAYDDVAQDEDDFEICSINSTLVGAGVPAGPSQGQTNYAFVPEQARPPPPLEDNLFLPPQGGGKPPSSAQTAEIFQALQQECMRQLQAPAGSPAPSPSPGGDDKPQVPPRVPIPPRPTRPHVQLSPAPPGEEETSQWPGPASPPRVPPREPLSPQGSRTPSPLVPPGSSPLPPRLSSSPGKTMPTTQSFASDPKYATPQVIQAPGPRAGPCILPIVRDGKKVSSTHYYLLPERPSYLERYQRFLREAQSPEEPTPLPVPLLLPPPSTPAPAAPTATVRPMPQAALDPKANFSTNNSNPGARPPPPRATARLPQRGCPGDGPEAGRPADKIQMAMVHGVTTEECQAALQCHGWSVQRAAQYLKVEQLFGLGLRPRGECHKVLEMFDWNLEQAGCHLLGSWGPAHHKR
### Response < 100 nM

### Prompt Please report IC50 with ACK1 (Homo sapiens, UniProt Q07912) for item Cc1ccc(Nc2ncc3c(n2)N(C)C(=O)N(c2cc(-c4ncc(-c5cccc(C(F)(F)F)c5)[nH]4)ccc2C)C3)cn1 [Compound No. 13] .
### Response 1000 to 10000 nM

### Prompt Answer with IC50 of COc1ccccc1-c1cnc(-c2ccc(C)c(N3Cc4cnc(Nc5ccc(N6CCN(C(C)=O)CC6)nc5)nc4N(C)C3=O)c2)[nH]1 [Compound No. 6] measured for ACK1 (Homo sapiens, UniProt Q07912).
### Response < 100 nM

---

Record type: pIC50 measurement. Applies to: ACK1 (Homo sapiens, UniProt Q07912)
pIC50: −log10 of the molar value.

See these solved cases before continuing.
Cc1ccc(Nc2ncc3c(n2)N(C)C(=O)N(c2cc(-c4ncc(-c5ccccc5OC(F)(F)F)[nH]4)ccc2C)C3)cn1 [Compound No. 9] : 6.00 to 7.00
COc1ccccc1-c1cnc(-c2ccc(C)c(N3Cc4cnc(Nc5ccc(C)nc5)nc4N(C)C3=O)c2)[nH]1 [Compound No. 3] : > 7.00
Cc1ccc(-c2ncc(-c3ccccc3OC(F)(F)F)[nH]2)cc1N1Cc2cnc(Nc3ccc(N4CCOCC4)cc3)nc2N(C)C1=O [Compound No. 18] : > 7.00

### Prompt Quote pIC50 with test system ACK1 (Homo sapiens, UniProt Q07912) for COc1ccccc1-c1cnc(-c2ccc(C)c(N3Cc4cnc(Nc5cnn(C6CCN(C(C)=O)CC6)c5)nc4N(C)C3=O)c2)[nH]1 [Compound No. 7]
### Response > 7.00
